# MEASURED ON: T1, PSGL-1 endogenously expressed on HL-60 cells (UniProt Q14242 42-412)
# T1 construct: whole, on cells
# T1 sequence (looked up): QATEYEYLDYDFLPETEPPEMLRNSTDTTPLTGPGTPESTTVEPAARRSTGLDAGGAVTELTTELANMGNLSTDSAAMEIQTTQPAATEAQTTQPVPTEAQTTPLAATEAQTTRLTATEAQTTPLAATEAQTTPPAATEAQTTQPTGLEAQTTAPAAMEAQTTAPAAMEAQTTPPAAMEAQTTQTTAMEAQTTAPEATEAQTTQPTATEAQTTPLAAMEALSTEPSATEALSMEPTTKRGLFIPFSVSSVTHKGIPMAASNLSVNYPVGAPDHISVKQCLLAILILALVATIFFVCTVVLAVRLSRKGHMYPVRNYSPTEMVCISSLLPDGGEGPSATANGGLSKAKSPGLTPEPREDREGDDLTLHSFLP
# ASSAY SUMMARY: flow cytometry on HL-60 cells; against parent 19L04
ATTRIBUTE MEASURED: HL-60 EC50 (normalized) (fold)
Respond numerically; units are fold and should not be typed.

Sample 19L04.006 (antibody, IgG4, V domains shown, Humanised) VH: QIQLVQSGSELKKPGASVKVSCKASGYTFTTYGMSWVRQAPGQGLKWMGWINTYSGVPTYADDFKGRFVFSLDTSVSTAYLQISSLKAEDTAVYFCARHYYGSHYFDYWGQGTLVTVSS VL: DIVMTQSPDSLAVSLGERATLRCKSSQSLLSSSNQKNYLAWYQQKPGQPPKLLVYFASTRESGVPVRFSGSGSGTDFTLTISSLQAEDVAVYFCQQHYFSPLTFGQGTKLEIK — what was its HL-60 EC50 (normalized)?
1.8

State the recorded HL-60 EC50 (normalized) for this entry: 19L04.008 (antibody, IgG4, V domains shown, Humanised) VH: QIQLVQSGAEVKKPGASVKVSCKASGYTFTTYGMSWVRQAPGQGLKWMGWINTYSGVPTYADDFKGRFTFTLDTSISTAYMELSRLRSDDTAVYFCARHYYGSHYFDYWGQGTLVTVSS VL: DIVMTQSPDSLAVSLGERATLRCKSSQSLLSSSNQKNYLAWYQQKPGQPPKLLVYFASTRESGVPVRFSGSGSGTDFTLTISSLQAEDVAVYFCQQHYFSPLTFGQGTKLEIK
1.5

Returns the measured HL-60 EC50 (normalized) for the input binder. Input: 19L04 (antibody, IgG4, V domains shown, From mouse immunisation; only variable domains given) VH: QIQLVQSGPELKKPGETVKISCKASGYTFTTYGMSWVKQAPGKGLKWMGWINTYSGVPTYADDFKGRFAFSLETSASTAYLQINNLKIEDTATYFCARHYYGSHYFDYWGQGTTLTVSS VL: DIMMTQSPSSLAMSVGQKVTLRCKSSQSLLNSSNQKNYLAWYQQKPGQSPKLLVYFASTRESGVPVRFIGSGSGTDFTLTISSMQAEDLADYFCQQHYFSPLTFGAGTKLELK
1

What does the data say about its HL-60 EC50 (normalized)? Entry: 19L04.004 (antibody, IgG4, V domains shown, Humanised) VH: QIQLVQSGAEVKKPGASVKVSCKASGYTFTTYGMSWVRQAPGQGLKWMGWINTYSGVPTYADDFKGRFTFTLDTSISTAYMELSRLRSDDTAVYFCARHYYGSHYFDYWGQGTLVTVSS VL: DIVMTQSPDSLAVSLGERATIRCKSSQSLLSSSNQKNYLAWYQQKPGQPPKLLVYFASTRESGVPDRFSGSGSGTDFTLTISSLQAEDVAVYYCQQHYFSPLTFGQGTKLEIK
4.5

Suppose we examine the binder 19L04.002 (antibody, IgG4, V domains shown, Humanised) VH: QIQLVQSGSELKKPGASVKVSCKASGYTFTTYGMSWVRQAPGQGLKWMGWINTYSGVPTYADDFKGRFVFSLDTSVSTAYLQISSLKAEDTAVYFCARHYYGSHYFDYWGQGTLVTVSS VL: DIVMTQSPDSLAVSLGERATIRCKSSQSLLSSSNQKNYLAWYQQKPGQPPKLLVYFASTRESGVPDRFSGSGSGTDFTLTISSLQAEDVAVYYCQQHYFSPLTFGQGTKLEIK ; what HL-60 EC50 (normalized) value has been reported?
1.3
